Test: activity coefficient (dimensionless); of the first substance listed, at infinite dilution; xn = mol fraction of the nth substance listed
Settings: 338.15 K; 101.33 kPa; Liquid; Chromatography; x1 = 0
endpoint: activity coefficient
One number for each entry.

Some entries whose results are on file:
CC(C)(C)O [2-methylpropan-2-ol] + C[N+]1(CCCO)CCOCC1.N#C[N-]C#N: 4.21
CC(C)CO [2-methyl-1-propanol] + C[n+]1ccn(CCCO)c1.N#CN=C=[N-]: 2.68
Cc1cccc(C)c1 [1,3-dimethylbenzene] + C[N+]1(CCCO)CCOCC1.N#C[N-]C#N: 24.2
CO [methanol] + C[N+]1(CCCO)CCOCC1.N#C[N-]C#N: 0.771
C1CCCCCCC1 [cyclooctane] + C[n+]1ccn(CCCO)c1.N#CN=C=[N-]: 153
c1ccsc1 [thiophene] + C[n+]1ccn(CCCO)c1.N#CN=C=[N-]: 2.69

Please go through the list and note activity coefficient for each compound.
1. C1=CCCCC1 [cyclohexene] + C[n+]1ccn(CCCO)c1.N#CN=C=[N-]
2. Cc1ccccc1 [toluene] + C[n+]1ccn(CCCO)c1.N#CN=C=[N-]
3. C=CCCCCC [1-heptene] + C[N+]1(CCCO)CCOCC1.N#C[N-]C#N
4. CC#N [acetonitrile] + C[n+]1ccn(CCCO)c1.N#CN=C=[N-]

[32.7, 8.27, 359, 1.29]

Kindly give each listed record's activity coefficient.
1. CCC(C)(C)OC [2-methoxy-2-methylbutane] + C[n+]1ccn(CCCO)c1.N#CN=C=[N-]
2. CCCc1ccccc1 [propylbenzene] + C[N+]1(CCCO)CCOCC1.N#C[N-]C#N

1. 37.2
2. 52.4

Give me activity coefficient for each of these compounds, listed below.
1. C1CCCCCC1 [cycloheptane] + C[n+]1ccn(CCCO)c1.N#CN=C=[N-]
2. c1ccccc1 [benzene] + C[N+]1(CCCO)CCOCC1.N#C[N-]C#N

111
7.2

Quick request: activity coefficient for each listed item, please.
1. C=COC(C)=O [vinyl acetate] + C[N+]1(CCCO)CCOCC1.N#C[N-]C#N
2. CCC(C)O (stereo not given) [butan-2-ol] + C[n+]1ccn(CCCO)c1.N#CN=C=[N-]
3. C#CCCCCC [1-heptyne] + C[N+]1(CCCO)CCOCC1.N#C[N-]C#N
4. COC(C)=O [methyl ethanoate] + C[n+]1ccn(CCCO)c1.N#CN=C=[N-]
5. C=CCCCCCCCC [1-decene] + C[n+]1ccn(CCCO)c1.N#CN=C=[N-]
6. CCC(C)(C)OC [2-methoxy-2-methylbutane] + C[N+]1(CCCO)CCOCC1.N#C[N-]C#N

1. 6.81
2. 2.72
3. 74
4. 3.35
5. 662
6. 78.6

Each of the following entries comes with a recorded value; kindly state activity coefficient for each.
1. c1ccncc1 [pyridine] + C[n+]1ccn(CCCO)c1.N#CN=C=[N-]
2. C1COCCO1 [1,4-dioxane] + C[n+]1ccn(CCCO)c1.N#CN=C=[N-]
3. CC(C)c1ccccc1 [isopropylbenzene] + C[n+]1ccn(CCCO)c1.N#CN=C=[N-]

1. 1.5
2. 1.98
3. 26.6

Batch: activity coefficient for all items listed.
1. CCCC(=O)OC [methyl butanoate] + C[N+]1(CCCO)CCOCC1.N#C[N-]C#N
2. COC(C)=O [methyl ethanoate] + C[N+]1(CCCO)CCOCC1.N#C[N-]C#N
3. CCC[N+](=O)[O-] [1-nitropropane] + C[N+]1(CCCO)CCOCC1.N#C[N-]C#N
4. C1CCOC1 [tetrahydrofuran] + C[n+]1ccn(CCCO)c1.N#CN=C=[N-]
5. CC(C)c1ccccc1 [isopropylbenzene] + C[N+]1(CCCO)CCOCC1.N#C[N-]C#N

1: 16.1; 2: 4.54; 3: 3.47; 4: 3.33; 5: 50.3

For the 2 compounds below, give their activity coefficient values.
1. CCO [ethanol] + C[N+]1(CCCO)CCOCC1.N#C[N-]C#N
2. CCOC(C)=O [ethyl acetate] + C[N+]1(CCCO)CCOCC1.N#C[N-]C#N

[1.61, 9.83]
